- Test system: EKVX NSCLC
- experimentalProtocol: NCI-60 one-dose screen, 48 h (100 = growth as untreated, 0 = no growth, -100 = all killed)
- protocolConditions: 10 µM unless noted
About 83,000 compounds went through this panel and 20% of them were active in at least one assay; those are over-represented in the sample as a whole.
assayReadout: growth (%)
Report the figure in % without appending any unit label.

Name the recorded growth for CC(C)N(CCOC(=O)Nc1ccccc1Cl)C(C)C .
99.7

# query: growth of entry COc1cc(/C=C/C(=O)c2ccc(Nc3nc(Nc4ccccc4)nc(Nc4ccc(Cl)cc4)n3)cc2)cc(OC)c1OC
52.8

growth for CS(=O)(=O)c1ccc(-c2[nH]c3ccc(F)cc3c2/C=N/O)cc1 ?
98.4

Give the measured growth of CNC(=O)c1cc(Oc2ccc3nc(Nc4cc(Cl)cc(Cl)c4)ccc3c2)ccn1 .
53.1

Look up growth for this molecule: N=C(N)c1ccc(-c2ccc(-c3ccc(Cl)cc3Cl)o2)nc1
95.4
